# test_details: AUC in Beagle dog at 5 mg/kg, iv measured upto 24 hrs by LC-MS/MS analysis
# Format: ADME, organism-based, Canis lupus familiaris
# Design: time < 24 hrs, dose 5 mg/kg, route iv
# test_settings: in vivo
measured_endpoint: AUC at 24 h (ng·h/mL)
A number alone suffices; assume ng·h/mL.

Per the record, O=C[C@H](C[C@@H]1CCNC1=O)NC(=O)[C@H](Cc1cccc(F)c1)NC(=O)c1cc2ccccc2[nH]1 has AUC at 24 h of 14900

----------
Here the recorded pIC50 is given for each entry.
# target_under_test: Replicase polyprotein 1ab (Severe acute respiratory syndrome coronavirus 2)
# test_details: Inhibition of SARS CoV-2 Main protease using MCA-AVLQSGFR-Lys(DNP)-Lys-NH2 peptide as substrate by fluorescence based analysis
# pIC50 is unitless: minus log10 of the molar concentration; print number only

smiles_structure	pIC50
Cc1ccc(-n2sc3ccccc3c2=O)cc1	6.48
O=C(O)Cn1[se]c2ccccc2c1=O	6.39
CC(C)(C)OC(=O)NCn1[se]c2ccccc2c1=O	6.48
O=c1c2ccccc2sn1Cc1ccccc1	6.77

The observed pIC50 for O=c1c2ccccc2sn1Cc1ccco1 when tested with Replicase polyprotein 1ab (Severe acute respiratory syndrome coronavirus 2) stands at 6.96

Considering O=c1c2ccccc2sn1-c1ccccc1 , its pIC50 with Replicase polyprotein 1ab (Severe acute respiratory syndrome coronavirus 2) was recorded as 6.31

The molecule O=c1c2ccccc2sn1CCCCc1ccccc1 , when measured on Replicase polyprotein 1ab (Severe acute respiratory syndrome coronavirus 2), yielded pIC50 of 6.39

Value sought: pIC50, system Replicase polyprotein 1ab (Severe acute respiratory syndrome coronavirus 2), item Cn1sc2ccccc2c1=O . Result: 6.11

The measured pIC50 that O=c1c2ccccc2[se]n1-c1cccc([N+](=O)[O-])c1 showed for Replicase polyprotein 1ab (Severe acute respiratory syndrome coronavirus 2) is 6.82

pIC50 on Replicase polyprotein 1ab (Severe acute respiratory syndrome coronavirus 2) for CCCn1sc2ccccc2c1=O is 6.14

Here Nc1ccccc1-n1sc2ccccc2c1=O was tested on Replicase polyprotein 1ab (Severe acute respiratory syndrome coronavirus 2), and its pIC50 came to 6.89

Item O=c1c2ccccc2sn1-c1ccc(Cl)cc1 was tested on Replicase polyprotein 1ab (Severe acute respiratory syndrome coronavirus 2); the reported pIC50 is 6.41

Tested on Replicase polyprotein 1ab (Severe acute respiratory syndrome coronavirus 2): O=C(O)CCn1[se]c2ccccc2c1=O . Observed pIC50: 6.46

Measured pIC50 (Replicase polyprotein 1ab (Severe acute respiratory syndrome coronavirus 2)), entry O=C(O)c1ccc(-n2[se]c3ccccc3c2=O)cc1 : 6.89
